# Tested on: ADRP
# assay-name: Effect of expression of core proteins on the ability to detect ADRP in BHK C13 cells by confocal microscopy
# Format: cell-based, hamster
# conditions: 20 hours after electroporation, anti-adipophilin antibody
# Procedure: Cells were harvested 20 hours after electroporation and fixed with methanol. ADRP was detected with anti-adipophilin antibody and core protein with 308 antisera. […] Cells on 13 mm coverslips were fixed in either methanol at −20° C. or 4% paraformaldehyde, 0.1% Triton X-100 (prepared in PBS) at 4° C. for 30 mins. […] Samples were analyzed using a Leiss LSM confocal microscope.
recorded-metric: ADRP detected by immunofluorescence in core-expressing cells

>  <molecule>
pSFV.1-173: SFV construct encoding amino acid residues 1-173 of HCV strain Glasgow core (protein) GACECPGRSRRPCTMSTNPKPQRKTKRNTNRRPQDVKFPGGGQIVGGVYLLPRRGPRLGVRATRKTSERSQPRGRRQPIPKARRPKGRNWAQPGYPWPLYGNEGCGWAGWLLSPSGSRPSWGPNDPRRRSRNLGKVIDTLTCGFVDLMGYIPLVGAPLRGAARALAHGVRVLE

>  <result>
barely detectable

$$$$
>  <molecule>
pSFV.1-169: SFV construct encoding amino acid residues 1-169 of HCV strain Glasgow core (protein) GACECPGRSRRPCTMSTNPKPQRKTKRNTNRRPQDVKFPGGGQIVGGVYLLPRRGPRLGVRATRKTSERSQPRGRRQPIPKARRPKGRNWAQPGYPWPLYGNEGCGWAGWLLSPSGSRPSWGPNDPRRRSRNLGKVIDTLTCGFVDLMGYIPLVGAPLRGAARALAHGV

>  <result>
barely detectable

$$$$
>  <molecule>
pSFV.1-153: SFV construct encoding amino acid residues 1-153 of HCV strain Glasgow core (protein) GACECPGRSRRPCTMSTNPKPQRKTKRNTNRRPQDVKFPGGGQIVGGVYLLPRRGPRLGVRATRKTSERSQPRGRRQPIPKARRPKGRNWAQPGYPWPLYGNEGCGWAGWLLSPSGSRPSWGPNDPRRRSRNLGKVIDTLTCGFVDLMGYIPL

>  <result>
readily found

$$$$
>  <molecule>
pSFV.Δ155-161: construct lacking the sequences encoding residues 155 to 161 of the core protein of HCV strain Glasgow (protein) GACECPGRSRRPCTMSTNPKPQRKTKRNTNRRPQDVKFPGGGQIVGGVYLLPRRGPRLGVRATRKTSERSQPRGRRQPIPKARRPKGRNWAQPGYPWPLYGNEGCGWAGWLLSPSGSRPSWGPNDPRRRSRNLGKVIDTLTCGFVDLMGYIPLVARALAHGVRVLEDGVNYATGNLPGCSFSIFLLAL

>  <result>
barely detectable

$$$$
>  <molecule>
pSFV.Δ161-166: construct lacking the sequences encoding residues 161 to 166 of the core protein of HCV strain Glasgow (protein) GACECPGRSRRPCTMSTNPKPQRKTKRNTNRRPQDVKFPGGGQIVGGVYLLPRRGPRLGVRATRKTSERSQPRGRRQPIPKARRPKGRNWAQPGYPWPLYGNEGCGWAGWLLSPSGSRPSWGPNDPRRRSRNLGKVIDTLTCGFVDLMGYIPLVGAPLRGHGVRVLEDGVNYATGNLPGCSFSIFLLAL

>  <result>
readily found

$$$$
